Target: muscarinic receptors
Experiment: (-)3H-QNB binding to rat cerebral cortex homogenates with and without Cu++ treatment
Conditions: without pretreatment; read-out: KL
pKi: −log10 of the molar value.
endpointLabel: pKi

smilesStr: CC1=NCC2(CCN(C)CC2)O1
endpointLabel: pKi
obsValue: 4.47

smilesStr: C[N+](C)(C)CC#CCOC(=O)Nc1cccc(Cl)c1
endpointLabel: pKi
obsValue: 5.07

smilesStr: CN1[C@@H]2C[C@@H](OC(=O)[C@H](CO)c3ccccc3)C[C@H]1[C@@H]1O[C@@H]12
endpointLabel: pKi
obsValue: 10.05

smilesStr: O=C1CCCN1CC#CCN1CCCC1
endpointLabel: pKi
obsValue: 4.88
